assayed_target: T1, hNav1.7-loopA3-llama Fc fusion (human)
T1 construct: also called hNav1.7-loopA3-llFc; loopA3-llamaFc chimera
T1 chain: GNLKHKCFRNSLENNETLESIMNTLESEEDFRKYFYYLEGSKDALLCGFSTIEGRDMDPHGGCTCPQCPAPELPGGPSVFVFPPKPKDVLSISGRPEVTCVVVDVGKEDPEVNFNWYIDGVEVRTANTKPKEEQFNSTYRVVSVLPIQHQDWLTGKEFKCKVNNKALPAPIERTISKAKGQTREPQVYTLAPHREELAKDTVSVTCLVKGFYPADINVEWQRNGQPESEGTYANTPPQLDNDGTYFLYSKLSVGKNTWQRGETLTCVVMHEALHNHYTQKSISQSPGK
test: Biacore SPR, antigen on CM5 chip, mAb in flow
outcome_measure: koff (s⁻¹)
Write down the numeric answer in s⁻¹ and omit the unit.

Dear colleague, I am looking for the recorded koff of the following binder: 3E1 (antibody, human IgG1, V domains shown) VH: EVQVQESGGGLVQPGGSLRLSCAASGFTFSSYWMYWVRQAPGKGLEWVSAINTGGGSTYYADSVKGRFTISRDNAKNTLYLQMNSLKPEDTALYYCARGPGYSGKYIEGWAYWGQGTQVTVSS VL: DIVMTQSPSSVTASVGEKVTINCKSSQSVVSGSKQKSYLNWYQQRPGQSPRLLIYYASTQESGIPDRFSGSGSTTDFTLTISSVQPEDAAVYYCQQAYSAPYSFGSGTRLEIK 0.00041
